Entries and their inhibition at 1 µM
targetOrTestSystem: hJAK3 kinase domain (aa781-end) (Homo sapiens (Human))
experimentSummary: JAK3 activity inhibition, kinase reaction (Test 1)
settings: read-out: JAK3 % Inhibition
Return type: number; implicit unit %.

> print(dat)
                                   compound        quantityname  reportedresult
1  N#CCC(=O)N1CCCC12CCCN(c1c(Cl)cnc3[nH]ncc13)C2 (racemic) [Compound 91]  inhibition at 1 µM              42
2  CC1N(c2ncnc3[nH]ccc23)CCC12CCCN2C(=O)CC#N (stereo not drawn) [Compound 13]  inhibition at 1 µM              26
3  N#CC1CCN(C(=O)N2CCCC23CCN(c2ncnc4[nH]ccc24)C3)C1 (racemic) [Compound 51]  inhibition at 1 µM              41

[Q] # return recorded inhibition at 1 µM for entry c1nc(N2CCC3(CCCCN3)C2)c2cc[nH]c2n1 (racemic) [Compound 79]
[A] 38

[Q] # return recorded inhibition at 1 µM for entry CC(=O)N1CCCC12CCN(c1ncnc3[nH]ccc13)C2 (racemic) [Compound 87]
[A] 39

[Q] # return recorded inhibition at 1 µM for entry c1nc(N2CCCC3(CCCCCN3)C2)c2cc[nH]c2n1 (racemic) [Compound 75]
[A] 1

* * *

Measured IC50 on hJAK3 kinase domain (aa781-end) (Homo sapiens (Human), UniProt P52333) follows.
Sequence (P52333 781-1124 limits assumed): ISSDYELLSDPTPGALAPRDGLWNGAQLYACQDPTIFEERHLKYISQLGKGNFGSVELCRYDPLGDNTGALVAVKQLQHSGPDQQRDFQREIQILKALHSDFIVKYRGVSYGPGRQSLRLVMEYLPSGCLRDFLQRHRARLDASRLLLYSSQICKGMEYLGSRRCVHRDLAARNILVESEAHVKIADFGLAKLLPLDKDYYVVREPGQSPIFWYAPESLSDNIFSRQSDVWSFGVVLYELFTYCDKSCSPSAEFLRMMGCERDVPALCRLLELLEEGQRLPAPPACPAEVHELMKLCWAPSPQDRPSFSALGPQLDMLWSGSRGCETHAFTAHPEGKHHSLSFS
Dear colleague, please send the value followed by its unit.

[Q] State the measured IC50 (hJAK3 kinase domain (aa781-end) (Homo sapiens (Human), UniProt P52333)) of CC1CC2(CCCN2C(=O)CC#N)CN1c1ncnc2[nH]ccc12 (single isomer, unassigned)
[A] 0.48 µM

[Q] State the measured IC50 (hJAK3 kinase domain (aa781-end) (Homo sapiens (Human), UniProt P52333)) of CC1CC2(CCCN(c3ncnc4[nH]ccc34)C2)N1C(=O)CC#N (stereo not shown) [Compound 20]
[A] 0.1 µM

[Q] State the measured IC50 (hJAK3 kinase domain (aa781-end) (Homo sapiens (Human), UniProt P52333)) of CC(=O)O[C@@H](C)C(=O)N1CCCC12CCCN(c1ncnc3[nH]ccc13)C2 (stereo partly shown)
[A] 0.11 µM

[Q] State the measured IC50 (hJAK3 kinase domain (aa781-end) (Homo sapiens (Human), UniProt P52333)) of CC1CC2(CCCN(c3ncnc4[nH]ccc34)C2)N1C(=O)CC#N (stereo not shown) [Compound 14]
[A] 0.041 µM

Provenance of the data: patent US20240150367A1
